The entries below are paired with their reported λmax.
EXPERIMENTAL PROTOCOL: maximum absorption wavelength
Format: physicochemical
EXPERIMENTAL CONDITIONS: Table 1; solvent not given
The reply should be a number in nm, with the unit left off.

Worked examples follow.
MOLECULE	λmax [nm]
CC(C)NC(=O)c1cc2c(cc1C(=O)NC(C)C)C(=O)C(c1nc3ccc(C(C)C)cc3cc1O)C2=O	460
Cc1ccc2oc(-c3ccc(-c4ccc(N5C(=O)c6cc7c(cc6C5=O)C(=O)C(c5nc6ccc(C(C)C)cc6cc5O)C7=O)cc4)cc3)nc2c1	455
CCCN(CCC)C(=O)c1ccc2c(c1)C(=O)C(c1nc3ccc(C(C)C)cc3cc1O)C2=O (stereo not shown)	450
CCCCCCCCOc1ccc(-c2ccc(N3C(=O)c4cc5c(cc4C3=O)C(=O)C(c3nc4ccc(C(C)C)cc4cc3O)C5=O)cc2)cc1	455
CCCCSc1c(O)c(C2C(=O)c3ccccc3C2=O)nc2ccc(C(C)C)cc12	450

Input: # get_value(readout='λmax', item= CCCCNC(=O)c1ccc2c(c1)C(=O)C(c1nc3ccc(C(C)C)cc3cc1O)C2=O (stereo not shown) )
Output: 450

Input: # get_value(readout='λmax', item= CCCCCCNC(=O)c1ccc2c(c1)C(=O)C(c1nc3ccc(C(C)C)cc3c(Br)c1O)C2=O (stereo not shown) )
Output: 450
